- target: peripheral opioid receptors (Mus musculus)
- Construct: Mice maintained (6 mice/cage) on 0.01M saccharin water with 1 g/1 morphine sulfate; from tissue; host or cells: living morphine-maintained mice (in vivo test; endogenous receptor)
- Sequence (P42866 whole entry): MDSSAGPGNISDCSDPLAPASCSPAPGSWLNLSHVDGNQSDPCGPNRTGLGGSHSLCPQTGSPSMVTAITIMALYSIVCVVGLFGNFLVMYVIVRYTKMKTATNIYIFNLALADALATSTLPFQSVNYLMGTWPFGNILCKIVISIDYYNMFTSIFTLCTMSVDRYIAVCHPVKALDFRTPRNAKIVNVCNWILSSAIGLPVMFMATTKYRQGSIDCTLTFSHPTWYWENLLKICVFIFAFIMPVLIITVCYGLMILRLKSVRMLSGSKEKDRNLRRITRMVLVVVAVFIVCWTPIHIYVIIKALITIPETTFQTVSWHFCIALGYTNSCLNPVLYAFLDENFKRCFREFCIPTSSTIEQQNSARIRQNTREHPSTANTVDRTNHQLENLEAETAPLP
- assay-procedure: precipitated diarrhea in morphine-maintained mice (peripheral opioid activity) and comparison with the writhing test
- Type: in vivo
- experimental-conditions: higher ratio = greater relative antagonism of peripheral opioid receptors
Structures can show the parent of a compound that is named as a salt.
Classification field: enter yes (1) for Ratio (AD50 mouse writhing test / ED50 mouse diarrhea test) values not below 20, no (0) for values below it.

{"compound": "C[C@H]1CN(CC(Cc2ccccc2)C(=O)NCC(=O)NCC(=O)NCc2ccccc2)CC[C@@]1(C)c1cccc(O)c1 (relative stereo)", "target": "peripheral opioid receptors (Mus musculus)", "answer-label": "no (0)"}
{"compound": "C[C@H]1CN(CC(Cc2ccccc2)C(=O)NCC(=O)OCC(=O)N(C)C)CC[C@@]1(C)c1cccc(O)c1 (relative stereo)", "target": "peripheral opioid receptors (Mus musculus)", "answer-label": "yes (1)"}
{"compound": "CCOC(=O)CNC(=O)C(Cc1ccccc1)CN1CC[C@@](C)(c2cccc(O)c2)[C@@H](C)C1 (stereo partly drawn) [Example 43, hydrochloride]", "target": "peripheral opioid receptors (Mus musculus)", "answer-label": "yes (1)"}
{"compound": "CCNC(=O)CNC(=O)C(CCN1CC[C@@](C)(c2cccc(O)c2)[C@@H](C)C1)C1CCCCC1 (relative stereo) [Example 22, hydrochloride]", "target": "peripheral opioid receptors (Mus musculus)", "answer-label": "yes (1)"}
{"compound": "CCCCCOC(=O)CNC(=O)C(Cc1ccccc1)CN1CC[C@@](C)(c2cccc(O)c2)[C@@H](C)C1 (relative stereo)", "target": "peripheral opioid receptors (Mus musculus)", "answer-label": "yes (1)"}
{"compound": "C[C@H]1CN(CC(CC2CCCCC2)C(=O)NCCC(=O)O)CC[C@@]1(C)c1cccc(O)c1 (stereo partly drawn) [Example 35, hydrochloride]", "target": "peripheral opioid receptors (Mus musculus)", "answer-label": "yes (1)"}
{"compound": "COC1CCC(OC(=O)CNC(=O)C(Cc2ccccc2)CN2CC[C@@](C)(c3cccc(O)c3)[C@@H](C)C2)CC1 (relative stereo)", "target": "peripheral opioid receptors (Mus musculus)", "answer-label": "yes (1)"}
{"compound": "C[C@H]1CN(CC(Cc2ccccc2)C(=O)NCCC(=O)O)CC[C@@]1(C)c1cccc(O)c1 (stereo partly drawn) [Example 57, monohydrate]", "target": "peripheral opioid receptors (Mus musculus)", "answer-label": "yes (1)"}
{"compound": "CCNC(=O)CCNC(=O)C(CC1CCCCC1)CN1CC[C@@](C)(c2cccc(O)c2)[C@@H](C)C1 (stereo partly drawn) [Example 37, monohydrochloride]", "target": "peripheral opioid receptors (Mus musculus)", "answer-label": "yes (1)"}
{"compound": "C[C@H]1CN(CCC(C(=O)NCCC(=O)OCc2ccccc2)C2CCCCC2)CC[C@@]1(C)c1cccc(O)c1 (relative stereo) [Example 25, hydrochloride monohydrate]", "target": "peripheral opioid receptors (Mus musculus)", "answer-label": "yes (1)"}
{"compound": "C[C@H]1CN(CC(Cc2ccccc2)C(=O)NCC(=O)O)CC[C@@]1(C)c1cccc(O)c1 (single isomer, unassigned; (+)) [Example 97E, monohydrate]", "target": "peripheral opioid receptors (Mus musculus)", "answer-label": "yes (1)"}
{"compound": "C[C@H]1CN(CC(Cc2ccccc2)C(=O)NCC(=O)NCC2CCCCC2)CC[C@@]1(C)c1cccc(O)c1 (relative stereo)", "target": "peripheral opioid receptors (Mus musculus)", "answer-label": "no (0)"}
